- Study Target: Leukotriene A-4 hydrolase (Homo sapiens)
- Sequence (P09960 whole entry): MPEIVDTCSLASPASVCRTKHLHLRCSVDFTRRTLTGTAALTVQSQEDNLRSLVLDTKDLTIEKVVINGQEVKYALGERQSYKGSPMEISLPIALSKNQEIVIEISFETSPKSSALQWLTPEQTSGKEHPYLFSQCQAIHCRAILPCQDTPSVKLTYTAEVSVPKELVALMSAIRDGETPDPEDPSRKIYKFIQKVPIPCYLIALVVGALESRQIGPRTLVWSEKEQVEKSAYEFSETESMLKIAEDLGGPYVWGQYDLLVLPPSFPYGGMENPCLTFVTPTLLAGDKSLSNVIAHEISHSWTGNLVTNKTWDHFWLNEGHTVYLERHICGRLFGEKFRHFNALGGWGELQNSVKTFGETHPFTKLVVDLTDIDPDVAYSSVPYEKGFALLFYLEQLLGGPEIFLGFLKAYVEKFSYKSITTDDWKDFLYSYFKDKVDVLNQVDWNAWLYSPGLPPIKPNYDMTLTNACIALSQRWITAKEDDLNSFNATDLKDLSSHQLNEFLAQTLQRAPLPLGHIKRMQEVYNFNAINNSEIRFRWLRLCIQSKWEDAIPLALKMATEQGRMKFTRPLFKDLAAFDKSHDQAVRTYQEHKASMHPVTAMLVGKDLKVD
pIC50: −log10 of the molar value.
Measured Attribute: pIC50

Readout pIC50 for Cl.NC1CCc2ccccc2CC1=O (stereo unspecified) , test system Leukotriene A-4 hydrolase (Homo sapiens), was < 3.00
